// provenance: ChEMBL document CHEMBL3603739

biological target: Kappa-type opioid receptor (Mus musculus, UniProt P33534); test: Displacement of [3H]U-69,593 from kappa opioid receptor in mouse brain membranes by liquid scintillation counting method; type: cell membranes, Membrane
Sequence (P33534 whole entry): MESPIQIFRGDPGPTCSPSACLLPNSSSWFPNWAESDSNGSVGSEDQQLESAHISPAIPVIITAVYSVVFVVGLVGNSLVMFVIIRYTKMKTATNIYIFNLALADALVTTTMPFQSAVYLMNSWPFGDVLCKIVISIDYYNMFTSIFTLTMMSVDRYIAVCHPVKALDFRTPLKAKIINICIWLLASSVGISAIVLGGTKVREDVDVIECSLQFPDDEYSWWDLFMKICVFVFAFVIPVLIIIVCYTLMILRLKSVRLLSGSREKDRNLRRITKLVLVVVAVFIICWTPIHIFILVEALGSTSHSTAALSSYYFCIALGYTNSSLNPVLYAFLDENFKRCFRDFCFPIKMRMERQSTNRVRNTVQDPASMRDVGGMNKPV
pKi: −log10 of the molar value.
Please use met whenever pKi is not below 6, and not met whenever it is.

- molecule: "C=CCN1C2CCCC1CN(C(c1ccc(C(=O)N(CC)CC)cc1)c1cccc(OC)c1)CC2 (mixture of isomers)"
  cat: "not met"

IN: Say whether C=CCN1CC2CCC(C1)N2C(c1ccc(C(=O)N(CC)CC)cc1)c1cccc(OC)c1 (racemic) shows pKi of 6 or more.
OUT: met

IN: Say whether C=CCN1CC2CCCC(C1)N2C(c1ccc(C(=O)N(CC)CC)cc1)c1cccc(OC)c1 (racemic) shows pKi of 6 or more.
OUT: not met

IN: Say whether C=CCN1C2CCC1CN(C(c1ccc(C(=O)N(CC)CC)cc1)c1cccc(OC)c1)CC2 (mixture of isomers) shows pKi of 6 or more.
OUT: not met

IN: Say whether C=CCN1CC2CC(C1)N2C(c1ccc(C(=O)N(CC)CC)cc1)c1cccc(OC)c1 (racemic) shows pKi of 6 or more.
OUT: not met

----------
biological target: Delta-type opioid receptor (Mus musculus); test: Displacement of [3H]DPDPE from delta opioid receptor in mouse brain membranes by liquid scintillation counting method
Sequence (P32300 whole entry): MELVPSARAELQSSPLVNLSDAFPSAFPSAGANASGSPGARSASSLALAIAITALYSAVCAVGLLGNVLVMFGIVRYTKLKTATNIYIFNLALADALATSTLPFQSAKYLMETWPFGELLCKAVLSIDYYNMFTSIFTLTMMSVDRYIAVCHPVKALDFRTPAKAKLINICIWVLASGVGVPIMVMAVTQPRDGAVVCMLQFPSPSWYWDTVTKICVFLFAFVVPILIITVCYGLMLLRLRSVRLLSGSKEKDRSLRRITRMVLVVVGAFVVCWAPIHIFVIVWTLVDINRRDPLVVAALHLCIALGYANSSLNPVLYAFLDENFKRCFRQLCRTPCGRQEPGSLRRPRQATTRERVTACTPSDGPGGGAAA
recorded_endpoint: Ki (nM)
Dear colleague, please return just the value in nM, with no unit written.

Examples from the recorded data:
- molecule: "C=CCN1C2CCC1CN(C(c1ccc(C(=O)N(CC)CC)cc1)c1cccc(OC)c1)CC2 (mixture of isomers)"
  recorded_endpoint: "Ki"
  meas_value: 1.84
- molecule: "C=CCN1C2CCCC1CN(C(c1ccc(C(=O)N(CC)CC)cc1)c1cccc(OC)c1)CC2 (mixture of isomers)"
  recorded_endpoint: "Ki"
  meas_value: 9.1
- molecule: "C=CCN1CC2CC(C1)N2C(c1ccc(C(=O)N(CC)CC)cc1)c1cccc(OC)c1 (racemic)"
  recorded_endpoint: "Ki"
  meas_value: 1.76
- molecule: "C=CCN1CC2CCC(C1)N2C(c1ccc(C(=O)N(CC)CC)cc1)c1cccc(OC)c1 (racemic)"
  recorded_endpoint: "Ki"
  meas_value: 0.34

Moving on to another molecule below.
IN: Please report the recorded Ki for C=CCN1CC2CCCC(C1)N2C(c1ccc(C(=O)N(CC)CC)cc1)c1cccc(OC)c1 (racemic) .
OUT: 1.88

----------
pKi values recorded for Mu-type opioid receptor (Mus musculus, UniProt P42866)
Reminder that pKi means the negative base-10 logarithm of the concentration expressed in mol/L.

IN: So what pKi did C=CCN1C2CCC1CN(C(c1ccc(C(=O)N(CC)CC)cc1)c1cccc(OC)c1)CC2 (mixture of isomers) get with Mu-type opioid receptor (Mus musculus, UniProt P42866)?
OUT: 6.74

----------
species on record: Mus musculus; test: Selectivity index, ratio of Ki for kappa opioid receptor in mouse brain membranes to Ki for delta opioid receptor in mouse brain membranes; assay type: cell membranes
Label true (1) when Ratio Ki is strictly below 1000; at or above that, label false (0).

- compound: "C=CCN1CC2CCCC(C1)N2C(c1ccc(C(=O)N(CC)CC)cc1)c1cccc(OC)c1 (racemic)"
  cat: "false (0)"
- compound: "C=CCN1C2CCC1CN(C(c1ccc(C(=O)N(CC)CC)cc1)c1cccc(OC)c1)CC2 (mixture of isomers)"
  cat: "false (0)"
- compound: "C=CCN1CC2CCC(C1)N2C(c1ccc(C(=O)N(CC)CC)cc1)c1cccc(OC)c1 (racemic)"
  cat: "true (1)"
- compound: "C=CCN1CC2CC(C1)N2C(c1ccc(C(=O)N(CC)CC)cc1)c1cccc(OC)c1 (racemic)"
  cat: "false (0)"

IN: Criterion: Ratio Ki strictly below 1000. Is it met by C=CCN1C2CCCC1CN(C(c1ccc(C(=O)N(CC)CC)cc1)c1cccc(OC)c1)CC2 (mixture of isomers) ?
OUT: true (1)

----------
species: Mus musculus; assay: Selectivity index, ratio of Ki for mu opioid receptor in mouse brain membranes to Ki for delta opioid receptor in mouse brain membranes; assay type: cell membranes
recorded_endpoint: Ratio Ki

Examples from the recorded data:
- compound: "C=CCN1C2CCCC1CN(C(c1ccc(C(=O)N(CC)CC)cc1)c1cccc(OC)c1)CC2 (mixture of isomers)"
  Ratio Ki: 104
- compound: "C=CCN1CC2CC(C1)N2C(c1ccc(C(=O)N(CC)CC)cc1)c1cccc(OC)c1 (racemic)"
  Ratio Ki: 653
- compound: "C=CCN1CC2CCC(C1)N2C(c1ccc(C(=O)N(CC)CC)cc1)c1cccc(OC)c1 (racemic)"
  Ratio Ki: 11300
- compound: "C=CCN1CC2CCCC(C1)N2C(c1ccc(C(=O)N(CC)CC)cc1)c1cccc(OC)c1 (racemic)"
  Ratio Ki: 1210

Moving on to another compound below.
IN: Please report the recorded Ratio Ki for C=CCN1C2CCC1CN(C(c1ccc(C(=O)N(CC)CC)cc1)c1cccc(OC)c1)CC2 (mixture of isomers) .
OUT: 99.5

----------
Ki values recorded for Mu-type opioid receptor (Mus musculus)

Examples from the recorded data:
- compound: "C=CCN1CC2CCCC(C1)N2C(c1ccc(C(=O)N(CC)CC)cc1)c1cccc(OC)c1 (racemic)"
  assayed_system: "Mu-type opioid receptor (Mus musculus)"
  Ki: "2270 nM"
- compound: "C=CCN1CC2CC(C1)N2C(c1ccc(C(=O)N(CC)CC)cc1)c1cccc(OC)c1 (racemic)"
  assayed_system: "Mu-type opioid receptor (Mus musculus)"
  Ki: "1150 nM"
- compound: "C=CCN1CC2CCC(C1)N2C(c1ccc(C(=O)N(CC)CC)cc1)c1cccc(OC)c1 (racemic)"
  assayed_system: "Mu-type opioid receptor (Mus musculus)"
  Ki: "3830 nM"

IN: So what Ki did C=CCN1C2CCCC1CN(C(c1ccc(C(=O)N(CC)CC)cc1)c1cccc(OC)c1)CC2 (mixture of isomers) get with Mu-type opioid receptor (Mus musculus)?
OUT: 950 nM
